Reported Ki by item:
# measured.target: AeOBP22 (Aedes aegypti)
# Construct: The mature form of AeOBP22 lacking the N-terminal signal peptide was expressed and purified as previously described; made in house
# test.summary: DAF based competition binding assay (recovery of DAF fluorescence by fatty acids)
Could you give the number and then its unit, please?

### Prompt Reported Ki for CCCCC/C=C\C/C=C\C/C=C\C/C=C\CCCC(=O)O [C20:4, arachidonic acid] : what is it?
### Response 286 nM

---
### Prompt Using the record for CCCCC/C=C\C/C=C\CCCCCCCC(=O)O [C18:2, linoleic acid] , report its Ki.
### Response 104 nM

====

# measured.target: AeOBP22 (Aedes aegypti, UniProt Q1HRL7)
# Construct: The mature form of AeOBP22 lacking the N-terminal signal peptide was expressed and purified as previously described; made in house
# Sequence (Q1HRL7 17-138): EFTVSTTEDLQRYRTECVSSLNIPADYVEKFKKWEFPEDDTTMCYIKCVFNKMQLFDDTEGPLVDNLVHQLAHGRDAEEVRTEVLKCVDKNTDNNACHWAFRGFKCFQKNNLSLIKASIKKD
# test.summary: DAF fluorescence quenching titration with AeOBP22 (direct binding)
# experimental.parameters: direct titration, fluorescence quenching at 513 nm, n = 7; read-out: KD of DAF for AeOBP22
result.type: Kd (nM)
Use nM as the unit, but write only the number.

### Prompt Lab note: need Kd for CCCCCCCCCCCC(=O)Nc1ccc2c(c1)C(=O)OC21c2ccc(O)cc2Oc2cc(O)ccc21 on AeOBP22 (Aedes aegypti, UniProt Q1HRL7), anyone have it?
### Response 1190

====

# measured.target: AeOBP22 (Aedes aegypti)
# Construct: The mature form of AeOBP22 lacking the N-terminal signal peptide was expressed and purified as previously described; made in house
# Sequence (Q1HRL7 17-138): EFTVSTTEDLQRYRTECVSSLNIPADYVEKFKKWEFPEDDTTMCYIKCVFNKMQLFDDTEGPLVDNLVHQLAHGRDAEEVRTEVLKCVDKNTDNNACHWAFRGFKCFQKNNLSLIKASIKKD
# test.summary: DAF based competition binding assay (recovery of DAF fluorescence by fatty acids)
# experimental.parameters: DAF competition, DAF 100 nM, protein 1000 nM, pH 8.0 (HEPES 50 mM pH 8.1), 25 °C, ± s.d., n = 3; read-out: KD (nM) for binding of fatty acids to AeOBP22
result.type: Kd (nM)
Value expressed in nM; do not type the unit.

// worked examples, Kd included
### Prompt Which Kd reading was recorded for the molecule CCCCCC/C=C\CCCCCCCC(=O)O ?
### Response 175

### Prompt Same for CCCCC/C=C\C/C=C\C/C=C\CCCCC(=O)O
### Response 111

### Prompt Check CCCCCCCCCCCCCCCC(=O)O too.
### Response 689

Could you now look at the following molecule, please?
### Prompt Given CC/C=C\C/C=C\C/C=C\CCCCCCCC(=O)O , state its recorded Kd.
### Response 52

====

# measured.target: AeOBP22 (Aedes aegypti, UniProt Q1HRL7)
# Construct: The mature form of AeOBP22 lacking the N-terminal signal peptide was expressed and purified as previously described; made in house
# test.summary: NMR 1H-15N HSQC ligand screening / chemical shift perturbation
# Assay type: binding
# experimental.parameters: protein 100 μM, sodium phosphate pH 6.5; result in words
result.type: binding to AeOBP22 judged by NMR

### Prompt State its binding to AeOBP22 judged by NMR on AeOBP22 (Aedes aegypti, UniProt Q1HRL7): O=Cc1ccccc1
### Response binding is weak

### Prompt Record: CC(C)=CCCC(C)CCO (centres unmarked)
### Response binding is weak

### Prompt Request: CC(C)=CCC/C(C)=C/CO
### Response binding is weak

====

# measured.target: AeOBP22 (Aedes aegypti, UniProt Q1HRL7)
# Construct: The mature form of AeOBP22 lacking the N-terminal signal peptide was expressed and purified as previously described; made in house
# test.summary: DAF based competition binding assay (recovery of DAF fluorescence by fatty acids)
# experimental.parameters: KD (nM) for binding of fatty acids to AeOBP22, DAF competition, DAF 100 nM, protein 1000 nM, pH 8.0 (HEPES 50 mM pH 8.1), 25 °C, ± s.d., n = 3
// values below are reported Kd
Quick note: give the figure in nM, leave out the unit.

### Prompt # value lookup — system AeOBP22 (Aedes aegypti, UniProt Q1HRL7), readout Kd, item CCCCC/C=C\C/C=C\CCCCCCCC(=O)O [C18:2, linoleic acid]
### Response 104

### Prompt Record: CCCCC/C=C\C/C=C\C/C=C\C/C=C\CCCC(=O)O [C20:4, arachidonic acid]
### Response 286

====

# measured.target: AeOBP22 (Aedes aegypti)
# Construct: The mature form of AeOBP22 lacking the N-terminal signal peptide was expressed and purified as previously described; made in house
# test.summary: DAF fluorescence quenching titration with AeOBP22 (direct binding)
# experimental.parameters: direct titration, fluorescence quenching at 513 nm, HEPES pH 8.1, 25 °C, ± s.d., n = 7; read-out: KD (nM) for binding of DAF to AeOBP22
result.type: Kd (nM)
Write down the numeric answer in nM and omit the unit.

### Prompt What Kd appears in the records for this compound with AeOBP22 (Aedes aegypti)? CCCCCCCCCCCC(=O)Nc1ccc2c(c1)C(=O)OC21c2ccc(O)cc2Oc2cc(O)ccc21
### Response 1190

====

# measured.target: AeOBP22 (Aedes aegypti, UniProt Q1HRL7)
# Construct: The mature form of AeOBP22 lacking the N-terminal signal peptide was expressed and purified as previously described; made in house
# Sequence (Q1HRL7 17-138): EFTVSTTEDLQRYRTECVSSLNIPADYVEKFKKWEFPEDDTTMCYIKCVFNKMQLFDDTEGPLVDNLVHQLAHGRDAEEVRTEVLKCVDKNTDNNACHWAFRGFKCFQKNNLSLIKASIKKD
# test.summary: DAF based competition binding assay (recovery of DAF fluorescence by fatty acids)
# experimental.parameters: pH 6.5 as printed, read-out: binding affinity at pH 6.5 (as printed in text)
result.type: pKd
pKd here: minus log base 10 of the concentration, concentration in moles per litre.

### Prompt Request - read-out pKd | tested on AeOBP22 (Aedes aegypti, UniProt Q1HRL7) | compound CC/C=C\C/C=C\C/C=C\CCCCCCCC(=O)O
### Response 7.28

====

# measured.target: AeOBP22 (Aedes aegypti)
# Construct: The mature form of AeOBP22 lacking the N-terminal signal peptide was expressed and purified as previously described; made in house
# Sequence (Q1HRL7 17-138): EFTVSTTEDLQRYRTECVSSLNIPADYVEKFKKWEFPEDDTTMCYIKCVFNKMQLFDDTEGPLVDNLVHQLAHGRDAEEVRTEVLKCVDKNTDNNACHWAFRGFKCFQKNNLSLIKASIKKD
# test.summary: DAF based competition binding assay (recovery of DAF fluorescence by fatty acids)
# experimental.parameters: pH 5, n = 2, read-out: KI (dissociation constant of the competitor) at pH 5
result.type: Ki (nM)
Output spec: scalar in nM, unitless text.

### Prompt Param readout = Ki; param system = AeOBP22 (Aedes aegypti); param query = CC/C=C\C/C=C\C/C=C\CCCCCCCC(=O)O [αC18:3, a-Linoleic acid C18:3 (D9,12,15)] ; response: value
### Response 42
